- Test system: L1210 leukemia ip in BDF1 mice, survival T/C
- assay.comment: NCI In Vivo Anticancer Drug Screen. Data for tumor model L1210 Leukemia (intraperitoneal) in B6D2F1 (BDF1) mice
- condition.description: endpoint: mean survival time; dose: 100.0 mg/kg/injection; schedule: Q04DX003 (ip); vehicle: Klucel (hydroxypropylcellulose) (HPC); higher = longer survival
Inconclusive results and toxic doses are left out.
Listed next: entries and their corresponding T/C.
measurement.label: T/C

INSERT INTO measurements (compound, system_name, measurement_label, result) VALUES
  ('CCOC(=O)C(=O)C(C#N)c1cccc2ccccc12 (stereo not drawn)', 'L1210 leukemia ip in BDF1 mice, survival T/C', 'T/C', '100 % of control'),
  ('O=NC12CCCCC1C(O)c1cc(Cl)cc(Cl)c1O2 (stereo not drawn)', 'L1210 leukemia ip in BDF1 mice, survival T/C', 'T/C', '101 % of control'),
  ('CC(=O)Nc1ccc(SCCCc2c(N)nc(N)nc2N)cc1', 'L1210 leukemia ip in BDF1 mice, survival T/C', 'T/C', '100 % of control'),
  ('COc1cc(N=CN(C)C)cc(OC)c1OC', 'L1210 leukemia ip in BDF1 mice, survival T/C', 'T/C', '97 % of control'),
  ('c1cc[n+](CC[n+]2ccccc2)cc1', 'L1210 leukemia ip in BDF1 mice, survival T/C', 'T/C', '107 % of control'),
  ('CCCCCNC(=O)CCC', 'L1210 leukemia ip in BDF1 mice, survival T/C', 'T/C', '96 % of control'),
  ('O=C1c2ccccc2C(=O)N1Cc1ccc([N+](=O)[O-])cc1', 'L1210 leukemia ip in BDF1 mice, survival T/C', 'T/C', '103 % of control'),
  ('C/C=C\COC(=O)COc1ccc(Cl)cc1', 'L1210 leukemia ip in BDF1 mice, survival T/C', 'T/C', '94 % of control'),
  ('CC(C)(CO)N=Cc1ccccc1O', 'L1210 leukemia ip in BDF1 mice, survival T/C', 'T/C', '96 % of control'),
  ('O=C(/C=C\c1ccc(O)cc1)c1ccccc1', 'L1210 leukemia ip in BDF1 mice, survival T/C', 'T/C', '89 % of control'),
  ('Cc1cccc(-c2nnc(C(Cl)(Cl)Cl)o2)c1', 'L1210 leukemia ip in BDF1 mice, survival T/C', 'T/C', '106 % of control'),
  ('C/C(=C\c1ccccc1)C(=O)c1ccc(-c2ccccc2)cc1', 'L1210 leukemia ip in BDF1 mice, survival T/C', 'T/C', '100 % of control'),
  ('CC(=O)C1C=NCCN=CC(C(C)=O)C(C)=NCCCN=C1C.[Ni] (stereo not drawn)', 'L1210 leukemia ip in BDF1 mice, survival T/C', 'T/C', '100 % of control');
